- Tested target: T1, recombinant human CD123-Fc (human, UniProt P26951 19-305)
- T1 construct: not shown: Fc part of CD123-Fc
- T1 sequence: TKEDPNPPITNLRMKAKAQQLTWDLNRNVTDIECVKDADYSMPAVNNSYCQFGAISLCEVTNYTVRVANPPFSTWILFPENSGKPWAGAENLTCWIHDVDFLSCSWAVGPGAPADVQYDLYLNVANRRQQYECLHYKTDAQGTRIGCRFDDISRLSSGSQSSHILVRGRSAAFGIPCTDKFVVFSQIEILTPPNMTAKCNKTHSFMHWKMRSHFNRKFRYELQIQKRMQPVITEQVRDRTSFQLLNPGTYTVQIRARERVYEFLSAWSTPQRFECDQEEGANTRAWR
- Method: phage ELISA, captured CD123-Fc
Measure name: ELISA_avg

ELISA_avg in this record for SEQ ID NO: 328 (designed binder, D domain, on phage) MGSWVEFHERLEAIEDRLMALGGSEAELAAFEKEIAAFESELQAYKGKGNPEVEYLREDAAFIRQLLQAYRHN : 3.7 ratio A450 target/IgG1-Fc

ELISA_avg in this record for SEQ ID NO: 433 (designed binder, D domain, on phage) MGSWNEFEDRLDAIWWRLFALGGSEAELAAFEKEIAAFESELQAYKGKGNPEVEALRVEAAFIRTMLQAYRHN : 5.1 ratio A450 target/IgG1-Fc

ELISA_avg in this record for SEQ ID NO: 377 (designed binder, D domain, on phage) MGSWVEFWDRLWAIDYRLFALGGSEAELAAFEKEIAAFESELQAYKGKGNPEVEALRDEAAWIREELQAYRHN : 3.6 ratio A450 target/IgG1-Fc

ELISA_avg in this record for SEQ ID NO: 511 (designed binder, D domain, on phage) MGSWVRFKDFLADIKMDLEALGGSEAELADFEYHIAEFEHNLQEYKGKGNPEVEALRKEAAAIRDELQAYRHN : 5.8 ratio A450 target/IgG1-Fc

ELISA_avg in this record for SEQ ID NO: 524 (designed binder, D domain, on phage) MGSWDFFKYDLANINEWLEALGGSEAELADFEYGIADFELWLQDYKGKGNPEVEALRKEAAAIRDELQAYRHN : 5.5 ratio A450 target/IgG1-Fc

ELISA_avg in this record for SEQ ID NO: 371 (designed binder, D domain, on phage) MGSWMEFVDRLDAIESRLWALGGSEAELAAFEKEIAAFESELQAYKGKGNPEVEWLRIEAAFIREELQAYRHN : 5.8 ratio A450 target/IgG1-Fc

ELISA_avg in this record for SEQ ID NO: 497 (designed binder, D domain, on phage) MGSWYYFKDELADIKWDLEALGGSEAELAWFEMLIAQFELDLQWYKGKGNPEVEALRKEAAAIRDELQAYRHN : 4 ratio A450 target/IgG1-Fc

ELISA_avg in this record for SEQ ID NO: 457 (designed binder, D domain, on phage) MGSWNSFKDELAEIKAELEALGGSEAELAFFEEDIAWFEEHLQQYKGKGNPEVEALRKEAAAIRDELQAYRHN : 3.3 ratio A450 target/IgG1-Fc

ELISA_avg in this record for SEQ ID NO: 472 (designed binder, D domain, on phage) MGSWQWFKEDLAEIKHDLEALGGSEAELAWFEDFIAQFEFDLQWYKGKGNPEVEALRKEAAAIRDELQAYRHN : 3.8 ratio A450 target/IgG1-Fc

ELISA_avg in this record for SEQ ID NO: 434 (designed binder, D domain, on phage) MGSWFYFKDDLADINYMLEALGGSEAELAMFEDDIAGFELTLLKYKGKGNPEVEALRKEAAAIRDELQAYRHN : 3.7 ratio A450 target/IgG1-Fc

ELISA_avg in this record for SEQ ID NO: 430 (designed binder, D domain, on phage) MGSWYEFDYRLDAIYDRLAALGGSEAELAAFEKEIAAFESELQAYKGKGNPEVERLRKWAANIREELQAYRHN : 24.9 ratio A450 target/IgG1-Fc

ELISA_avg in this record for SEQ ID NO: 533 (designed binder, D domain, on phage) MGSWAEFKQRLAAIKTRLEALGGSEAELAAFMDEIMAFEWELWAYKGKGNPEVEALMNEAFAIDVELYAYRHN : 3.4 ratio A450 target/IgG1-Fc

ELISA_avg in this record for SEQ ID NO: 552 (designed binder, D domain, on phage) MGSWYEFESRLEAIWWRLEALGGSEAELAQFEQYIADFEQHLQWYKGKGNPEVEALDWEADAIWLELQAYRHN : 4.4 ratio A450 target/IgG1-Fc

ELISA_avg in this record for SEQ ID NO: 571 (designed binder, D domain, on phage) MGSWAEFDSRLDAIAQRLFALGGSEAELAHFEDFIAQFEYSLQEYKGKGNPEVEALSNEADAIFNELKAYRHN : 3.6 ratio A450 target/IgG1-Fc

ELISA_avg in this record for SEQ ID NO: 482 (designed binder, D domain, on phage) MGSWTFFKDDLAEIKWMLEALGGSEAELAWFESDIAYFEDELQWYKGKGNPEVEALRKEAAAIRDELQAYRHN : 3.3 ratio A450 target/IgG1-Fc

ELISA_avg in this record for SEQ ID NO: 374 (designed binder, D domain, on phage) MGSWEEFFTRLDAINERLEALGGSEAELAAFEKEIAAFESELQAYKGKGNPEVEMLRYEAAEIRHMLQAYRHN : 3.9 ratio A450 target/IgG1-Fc

ELISA_avg in this record for SEQ ID NO: 370 (designed binder, D domain, on phage) MGSWYEFWDRLDALEDRLWALGGSEAELAAFEKEIAAFESELQAYKGKGNPEVEYLRDSAAFIREELQAYRHN : 9.7 ratio A450 target/IgG1-Fc

ELISA_avg in this record for SEQ ID NO: 383 (designed binder, D domain, on phage) MGSWFEFQDRLWAIDNRLWALGGSEAELAAFEKEIAAFESELQAYKGKGNPEVEELRDHAAMIRWELQAYRHN : 3.2 ratio A450 target/IgG1-Fc

ELISA_avg in this record for SEQ ID NO: 405 (designed binder, D domain, on phage) MGSWYEFHHRLDAIYERLLALGGSEAELAAFEKEIAAFESELQAYKGKGNPEVEWLRSSAANIRKELQAYRHN : 11.9 ratio A450 target/IgG1-Fc
